Data origin, for the record: paper PMC7054760

- assayed target: CARM1_135–479 (Homo sapiens, UniProt Q86X55)
- Construct: human CARM1, residues 135 to 479; MBP (N, cleaved yes); linker and TEV site […]; (N, cleaved yes); made in house; host or cells: E. coli BL21-CodonPlus (DE3)-RIL
- test method notes: Radiometric methylation assay, CARM1 with H3(3–31) and [methyl-3H]-SAM
- Assay type: biochemical
- experimental conditions: 320 nM CARM1, 120 µM H3(3–31), 0.23 µM [3H]-SAM; read-out: IC50 (95% confidence interval), CARM1
experimental readout: IC50 (µM)
One number for each entry, in µM.

Below, 3 compounds whose answers are already recorded.
Lookup: Give a short answer stating reported IC50 for `N=C(N)NCCCN(CCCN)C[C@H]1O[C@@H](n2cnc3c(N)ncnc32)[C@H](O)[C@@H]1O` .
Found: 2.3

Lookup: Give a short answer stating reported IC50 for `NCCCN(CCCNc1ccccn1)C[C@H]1O[C@@H](n2cnc3c(N)ncnc32)[C@H](O)[C@@H]1O` .
Found: 0.3

Lookup: Give a short answer stating reported IC50 for `N=C(N)NCCCCCN(CC[C@H](N)C(=O)O)C[C@H]1O[C@@H](n2cnc3c(N)ncnc32)[C@H](O)[C@@H]1O` .
Found: 24.1

Switching to the query record.
Lookup: Give a short answer stating reported IC50 for `NCCCN(CCCNc1ncccn1)C[C@H]1O[C@@H](n2cnc3c(N)ncnc32)[C@H](O)[C@@H]1O` .
Found: 0.7

* * *

Hi there, I'd appreciate the recorded Kd for every entry that follows.
- assayed target: human CARM1 (CARM1_135–479) (Homo sapiens, UniProt Q86X55)
- Sequence (Q86X55 135-479): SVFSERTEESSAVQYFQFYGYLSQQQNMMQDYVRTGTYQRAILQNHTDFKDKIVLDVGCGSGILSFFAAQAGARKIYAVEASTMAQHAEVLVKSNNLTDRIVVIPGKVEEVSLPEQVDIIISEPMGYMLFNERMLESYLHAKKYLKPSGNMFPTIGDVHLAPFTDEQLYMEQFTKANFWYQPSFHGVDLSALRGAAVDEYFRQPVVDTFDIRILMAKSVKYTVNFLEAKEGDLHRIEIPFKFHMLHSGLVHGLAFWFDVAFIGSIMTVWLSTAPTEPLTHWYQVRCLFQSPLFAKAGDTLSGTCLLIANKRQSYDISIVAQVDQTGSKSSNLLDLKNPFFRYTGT
- test method notes: Isothermal titration calorimetry (ITC) with CARM1 catalytic domain
- Assay type: binding
- experimental conditions: ITC, 25°C; read-out: Kd ± standard error, CARM1
Numbers only, in nM.

Below, 3 molecules whose answers are already recorded.
Lookup: Give a short answer stating reported Kd for NCCCN(CCCNc1ncccn1)C[C@H]1O[C@@H](n2cnc3c(N)ncnc32)[C@H](O)[C@@H]1O [Inhibitor 8] .
Found: 2300

Lookup: Give a short answer stating reported Kd for NCCCN(CCCNc1ccccn1)C[C@H]1O[C@@H](n2cnc3c(N)ncnc32)[C@H](O)[C@@H]1O [Inhibitor 9] .
Found: 1140

Lookup: Give a short answer stating reported Kd for N=C(N)NCCCN(CCCN)C[C@H]1O[C@@H](n2cnc3c(N)ncnc32)[C@H](O)[C@@H]1O [Inhibitor 4] .
Found: 3320

Further cases:
Lookup: Give a short answer stating reported Kd for N=C(N)NCCCCCN(CC[C@H](N)C(=O)O)C[C@H]1O[C@@H](n2cnc3c(N)ncnc32)[C@H](O)[C@@H]1O [Inhibitor 7] .
Found: 38100

* * *

- assayed target: human CARM1 (CARM1_135–479) (Homo sapiens)
- test method notes: Isothermal titration calorimetry (ITC) with CARM1 catalytic domain
- Format: binding
- experimental conditions: Kd ± standard error from curve fitting, CARM1 WT, ITC, Table 2, wild-type
experimental readout: Kd
Answer shape: numeric part, then the unit.

Lookup: Give a short answer stating reported Kd for `Nc1ncnc2c1ncn2[C@@H]1O[C@H](CN(CCCNc2ccccn2)CC[C@H](N)C(=O)O)[C@@H](O)[C@H]1O` .
Found: 1.11 µM

* * *

- assayed target: human CARM1 (CARM1_135–479) (Homo sapiens)
- test method notes: Isothermal titration calorimetry (ITC) with CARM1 catalytic domain
- Format: binding
- experimental conditions: ITC
Hi there, I'd appreciate the recorded ∆H ± standard error from curve fitting, CARM1 for every entry that follows.
One number for each entry, in kcal/mol.

Below, 2 compounds whose answers are already recorded.
Lookup: Give a short answer stating reported ∆H ± standard error from curve fitting, CARM1 for N=C(N)NCCCCCN(CC[C@H](N)C(=O)O)C[C@H]1O[C@@H](n2cnc3c(N)ncnc32)[C@H](O)[C@@H]1O [Inhibitor 7] .
Found: -18.6

Lookup: Give a short answer stating reported ∆H ± standard error from curve fitting, CARM1 for NCCCN(CCCNc1ccccn1)C[C@H]1O[C@@H](n2cnc3c(N)ncnc32)[C@H](O)[C@@H]1O [Inhibitor 9] .
Found: -20.6

Return reported ∆H ± standard error from curve fitting, CARM1 values for all items listed beneath this line.
1. Nc1ncnc2c1ncn2[C@@H]1O[C@H](CN(CCCNc2ccccn2)CC[C@H](N)C(=O)O)[C@@H](O)[C@H]1O [Inhibitor 10]
2. Nc1ncnc2c1ncn2[C@@H]1O[C@H](CSCC[C@H](N)C(=O)O)[C@@H](O)[C@H]1O [SAH, S-Adenosylhomocysteine, reference compound]
3. NCCCN(CCCNc1ncccn1)C[C@H]1O[C@@H](n2cnc3c(N)ncnc32)[C@H](O)[C@@H]1O [Inhibitor 8]
4. N=C(N)NCCCN(CCCN)C[C@H]1O[C@@H](n2cnc3c(N)ncnc32)[C@H](O)[C@@H]1O [Inhibitor 4]

Found:
-17.5
-35.1
-29.6
-24.6

* * *

- assayed target: human CARM1 (CARM1_135–479) (Homo sapiens, UniProt Q86X55)
- test method notes: Isothermal titration calorimetry (ITC) with CARM1 catalytic domain
- Type: binding
- experimental conditions: ITC
experimental readout: N (stoichiometry) ± standard error from curve fitting, CARM1
Give bare numbers.

Below, 5 compounds whose answers are already recorded.
Lookup: Give a short answer stating reported N (stoichiometry) ± standard error from curve fitting, CARM1 for `N=C(N)NCCCCCN(CC[C@H](N)C(=O)O)C[C@H]1O[C@@H](n2cnc3c(N)ncnc32)[C@H](O)[C@@H]1O` .
Found: 0.648

Lookup: Give a short answer stating reported N (stoichiometry) ± standard error from curve fitting, CARM1 for `N=C(N)NCCCN(CCCN)C[C@H]1O[C@@H](n2cnc3c(N)ncnc32)[C@H](O)[C@@H]1O` .
Found: 0.481

Lookup: Give a short answer stating reported N (stoichiometry) ± standard error from curve fitting, CARM1 for `NCCCN(CCCNc1ccccn1)C[C@H]1O[C@@H](n2cnc3c(N)ncnc32)[C@H](O)[C@@H]1O` .
Found: 0.529

Lookup: Give a short answer stating reported N (stoichiometry) ± standard error from curve fitting, CARM1 for `NCCCN(CCCNc1ncccn1)C[C@H]1O[C@@H](n2cnc3c(N)ncnc32)[C@H](O)[C@@H]1O` .
Found: 0.529

Lookup: Give a short answer stating reported N (stoichiometry) ± standard error from curve fitting, CARM1 for `Nc1ncnc2c1ncn2[C@@H]1O[C@H](CN(CCCNc2ccccn2)CC[C@H](N)C(=O)O)[C@@H](O)[C@H]1O` .
Found: 0.536

Switching to the query record.
Lookup: Give a short answer stating reported N (stoichiometry) ± standard error from curve fitting, CARM1 for Nc1ncnc2c1ncn2[C@@H]1O[C@H](CSCC[C@H](N)C(=O)O)[C@@H](O)[C@H]1O [SAH, S-Adenosylhomocysteine, reference compound] .
Found: 0.549

* * *

- assayed target: human CARM1 (CARM1_135–479) (Homo sapiens)
- Sequence (Q86X55 135-479): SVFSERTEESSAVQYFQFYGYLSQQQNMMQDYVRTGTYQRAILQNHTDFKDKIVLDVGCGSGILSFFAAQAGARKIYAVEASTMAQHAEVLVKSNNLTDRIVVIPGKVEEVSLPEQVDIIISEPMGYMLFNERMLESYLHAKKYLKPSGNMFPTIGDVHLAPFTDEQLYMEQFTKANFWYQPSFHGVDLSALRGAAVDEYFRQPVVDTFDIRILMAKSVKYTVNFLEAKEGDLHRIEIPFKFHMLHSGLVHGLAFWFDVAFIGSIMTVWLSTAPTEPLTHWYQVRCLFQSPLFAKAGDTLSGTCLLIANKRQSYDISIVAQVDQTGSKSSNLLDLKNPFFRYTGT
- test method notes: Isothermal titration calorimetry (ITC) with CARM1 catalytic domain
- Type: binding
- experimental conditions: ITC, Table 2, wild-type; read-out: Kd ± standard error from curve fitting, CARM1 WT
experimental readout: Kd (nM)
One number for each entry, in nM.

Lookup: Give a short answer stating reported Kd for NCCCN(CCCNc1ncccn1)C[C@H]1O[C@@H](n2cnc3c(N)ncnc32)[C@H](O)[C@@H]1O [Inhibitor 8] .
Found: 2300

Lookup: Give a short answer stating reported Kd for NCCCN(CCCNc1ccccn1)C[C@H]1O[C@@H](n2cnc3c(N)ncnc32)[C@H](O)[C@@H]1O [Inhibitor 9] .
Found: 1140

Switching to the query record.
Lookup: Give a short answer stating reported Kd for N=C(N)NCCCCCN(CC[C@H](N)C(=O)O)C[C@H]1O[C@@H](n2cnc3c(N)ncnc32)[C@H](O)[C@@H]1O [Inhibitor 7] .
Found: 38100
